Cited source for all entries: patent US4849441A

Reported minimal effective dose is given for each of the following compounds.
# Tested on: coronary artery ligation-induced arrhythmia in dog
# test_summary: Dog coronary artery ligation-induced arrhythmia test
# Type: in vivo, dogs
# test_settings: Canis lupus familiaris, intravenous, 16 h after ligation, effective if 50% or more of total pulses restored to sinus rhythm, dose effective in 50% or more cases, read-out: Antiarrhythmic Activity B: coronary artery ligation induced arrhythmia in dog (MED)
experimental_readout: minimal effective dose (mg/kg)

>>> reading("CCN(CC)CCN1C(=O)c2ccccc2C1c1cc(C#N)ccc1N (stereo not drawn)")
2.5
>>> reading("CCN(CC)CCN1C(=O)c2ccccc2C1c1ccccc1N (stereo not drawn)")
1.25
>>> reading("CCN(CC)CCCCN1C(=O)c2ccccc2C1c1ccccc1N (stereo not drawn)")
1.25

----------
# System: dd, male mice
# test_summary: Acute toxicity test (mortality 7 days after administration)
# Format: in vivo
# test_settings: mortality at 7 days, minimum lethal dosage
Reported Acute Toxicity (MLD) i.p. is given for each of the following molecules.
experimental_readout: Acute Toxicity (MLD) i.p.

>>> reading("CCN(CC)CCN1C(=O)c2ccccc2C1c1ccccc1NC (stereo not drawn) [Compound 7]")
"50 mg/kg"
>>> reading("CCNc1ccccc1C1c2ccccc2C(=O)N1CCN(CC)CC (stereo not drawn) [Compound 9]")
"> 100 mg/kg"
>>> reading("CCN(CC)CCCCN1C(=O)c2ccccc2C1c1ccccc1N (stereo not drawn) [Compound 4]")
"> 100 mg/kg"
>>> reading("CCN(CC)CCN1C(=O)c2ccccc2C1c1ccccc1N (stereo not drawn) [Compound 1]")
"> 100 mg/kg"
>>> reading("CCN(CC)CCN1C(=O)c2ccccc2C1c1ccccc1N(C)C (stereo not drawn) [Compound 8]")
"50 mg/kg"
>>> reading("CN(C)CCCN1C(=O)c2ccccc2C1c1ccccc1N (stereo not drawn) [Compound 2]")
"> 100 mg/kg"
>>> reading("CCN(CC)CCN1C(=O)c2ccccc2C1c1c(C)ccc(C)c1N (stereo not drawn) [Compound 17]")
"> 100 mg/kg"
>>> reading("CCCCN(CCCC)CCCN1C(=O)c2ccccc2C1c1ccccc1N (stereo not drawn) [Compound 5]")
"25 mg/kg"
>>> reading("CC(C)NCCN1C(=O)c2ccccc2C1c1cc(C#N)ccc1N (stereo not drawn) [Compound 36]")
"> 100 mg/kg"
>>> reading("CCN(CC)CCN1C(=O)c2ccccc2C1c1cc(C)cc(C)c1N (stereo not drawn) [Compound 26]")
"100 mg/kg"
>>> reading("CC(C)NCCN1C(=O)c2ccccc2C1c1ccccc1N (stereo not drawn) [Compound 6]")
"> 100 mg/kg"
>>> reading("CCNCCN1C(=O)c2ccccc2C1c1cc(C#N)ccc1N (stereo not drawn) [Compound 38]")
"> 100 mg/kg"
>>> reading("CCN(CC)CCN1C(=O)c2ccccc2C1c1ccc(N(C)C)cc1 (stereo not drawn) [Compound 18]")
"50 mg/kg"
>>> reading("CCN(CC)CCCN1C(=O)c2ccccc2C1c1ccccc1N (stereo not drawn) [Compound 3]")
"> 100 mg/kg"
>>> reading("CCN(CC)CCN1C(=O)c2ccccc2C1c1cc(F)ccc1N (stereo not drawn) [Compound 32]")
"> 100 mg/kg"
>>> reading("CCN(CC)CCN1C(=O)c2ccccc2C1c1cc(Cl)ccc1N (stereo not drawn) [Compound 11]")
"> 100 mg/kg"
>>> reading("CCN1CCCC1CN1C(=O)c2ccccc2C1c1cc(C#N)ccc1N (stereo not drawn) [Compound 35]")
"> 100 mg/kg"
>>> reading("CCN(CC)CCN1C(=O)c2ccccc2C1c1cccc(C(C)C)c1N (stereo not drawn) [Compound 33]")
"50 mg/kg"
